target: CXCL1 (human, UniProt P09341 35-107); assay: BLI
pKd: −log10 of the molar value.
Measured metric: pKd

Binder	Value observed
P1156 (evasin from Ixodes ricinus), purified, C-terminal StrepII:His tag (natural protein) DGGADDDNELFTVQYCGMNCTKDEGGTWTGCTGKKEGCKCYHESGKNYGLCLSTEYTDFSQYGNPSDSEIEAAKPKRSDTLSH	8.24
